assay: qHTS of pediatric cancer cell lines to identify multiple opportunities for drug repurposing: Primary screen for SJ-GBM2 cells (AID 1347091); conditions: SJ-GBM2 viability, CellTiter-Glo luminescence, 48 h; series mostly up to 46 µM; note: potency is the fitted concentration of half-maximal effect
Results filed as inconclusive are left out. Calls of active or inactive are those of the source. Calls come from the whole dose curve; as a rule, active = well fitted cell-killing curve with a large enough effect; inconclusive = small, poorly fitted or top-dose-only effect; inactive = no such curve, though single readings can be large or run the other way.
Your answer must be one of the following: t (active), f (inactive)

stdin: Hi, do you know how `C[C@@H]1C[C@H]2[C@@H]3CCC4=CC(=O)C=C[C@]4(C)[C@@]3(Cl)[C@@H](O)C[C@]2(C)[C@@]1(OC(=O)c1ccco1)C(=O)CCl` came out in this test?
stdout: t

====

assay: Quantitative High-Throughput drug screen in 47 multiple myeloma cell lines against the NCATS MIPE library collection: MM1R_ATCC cell viability assay (AID 1918981); details: MM1R multiple myeloma cells, CellTiter-Glo viability, 48 h; series mostly up to 45.8 µM; note: nearly all actives have a fitted effect of over 35% in size
Records with an inconclusive call do not appear. Active and inactive are the calls of the source. The call rests on the fitted dose curve; in most records, active means well fitted cell-killing curve with a large enough effect; inconclusive means small, poorly fitted or top-dose-only effect, or effect the other way; inactive means no such curve, though single readings can be large or run the other way.
Your answer must be one of the following: active, inactive

Worked examples, 6 compounds total:
compound: N=C(N)c1ccc(OCCCCCOc2ccc(C(=N)N)cc2)cc1
discreteLabel: active
--
compound: O[C@@H](CNC[C@H](O)[C@H]1CCc2cc(F)ccc2O1)[C@@H]1CCc2cc(F)ccc2O1
discreteLabel: active
--
compound: CCN(CC)CCn1c(=O)c(Cc2ccc(OC)cc2)nc2ccccc21
discreteLabel: inactive
--
compound: CCOc1cc(N)c(Cl)cc1C(=O)NCC1CN(Cc2ccc(F)cc2)CCO1 (configuration not stated)
discreteLabel: inactive
--
compound: O=c1oc2c(O)c(O)cc3c(=O)oc4c(O)c(O)cc1c4c23
discreteLabel: inactive
--
compound: CC(C)(C#N)c1cc(Cn2cncn2)cc(C(C)(C)C#N)c1
discreteLabel: inactive

stdin: Hi, do you know how `CC(C)(C)C(=O)OCOP(=O)(COCCn1cnc2c(N)ncnc21)OCOC(=O)C(C)(C)C` came out in this test?
stdout: active

stdin: Next: `NC(=O)N1c2ccccc2CC(=O)c2ccccc21`
stdout: inactive

stdin: Next: `Cc1ccc(S(=O)(=O)N[C@@H](Cc2ccccc2)C(=O)CCl)cc1`
stdout: active

====

assay: qHTS profiling for inhibitors of Plasmodium falciparum proliferation (AID 504749); note: potency is the fitted concentration of half-maximal effect; nearly all actives have a fitted effect of over 60% in size; details: P. falciparum in erythrocytes, SYBR Green DNA, 72 h; parasite line A
Records with an inconclusive call do not appear. Active and inactive are the calls of the source. The call rests on the fitted dose curve; in most records, active means well fitted inhibition curve with a large enough effect; inconclusive means small, poorly fitted or top-dose-only effect; inactive means flat fitted curve, though single readings scatter.
Quick list: Potency per entry.

compound: CCCCOc1ccc(CC(=O)NO)cc1
Potency: 1120 nM (active)

compound: N=C(N)c1ccc(OCCCCCOc2ccc(C(=N)N)cc2)cc1
Potency: 1000 nM (active)

compound: COc1cc(NCc2ccc3nc(N)nc(N)c3c2C)cc(OC)c1OC
Potency: 3.5 nM (active)

// moving on: another record for Potency
stdin: Data request, read-out Potency, for CCOc1cc(N)c(Cl)cc1C(=O)NCC1CN(Cc2ccc(F)cc2)CCO1 (centres undefined)
stdout: 2510 nM (active)

====

Assay: AP1 Signaling Pathway (AID 357);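 note: ME-180 reporter cells stimulated with EGF at its EC50 level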
Conditions: ME-180 (cervical carcinoma) AP-1-bla reporter, EGF-induced, beta-lactamase ratio, 5 h; at 17.2 µM (top of the series) unless noted
Description: NCGC Assay Overview: Activator protein-1 (AP-1), a transcription factor, plays an important role in tumor genesis by regulating genes involved in cell proliferation, differentiation, apoptosis, and angiogenesis. AP-1 activity is induced by a complex network of signaling pathways that involves extracellular signals, such as growth factors. […] Library compounds were measured for their ability to modulate positively or negatively the action of EC50 EGF on reporter gene activity. […]
Results filed as inconclusive are left out. The source made the active and inactive calls. Calls follow the shape of the dose curve; as a rule, active = well fitted curve in either direction with a large enough effect (not every such curve was filed as active); inconclusive = small, poorly fitted or top-dose-only effect, or another doubt; inactive = flat fitted curve, though single readings scatter.
Your answer must be one of the following: active, inactive

Worked examples, 3 molecules total:
molecule: CCCOc1ccc(C(=O)OCCN(CC)CC)cc1N
discreteLabel: inactive
//
molecule: COc1ncnc(NS(=O)(=O)c2ccc(N)cc2)c1OC
discreteLabel: inactive
//
molecule: CCOC(=O)c1ccc(OC(=O)CCCCCN=C(N)N)cc1
discreteLabel: inactive

stdin: Hi, do you know how `COc1cc2ncnc(Nc3cccc(Cl)c3)c2cc1OC` came out in this test?
stdout: active

stdin: Next: `CCc1cc(C(N)=S)ccn1`
stdout: inactive

stdin: Next: CCN(CC)CC#CCOC(=O)C(O)(c1ccccc1)C1CCCCC1 (stereo unspecified)
stdout: inactive
